B1: TPR t1 (parent)
chain: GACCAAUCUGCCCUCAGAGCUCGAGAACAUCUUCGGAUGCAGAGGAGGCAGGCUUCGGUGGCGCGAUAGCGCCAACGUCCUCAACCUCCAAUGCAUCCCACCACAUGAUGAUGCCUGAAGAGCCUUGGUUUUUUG

variants of: B1; experiment: polymerase ribozyme fitness, log enrichment relative to wild type (log ratio); higher = more active; in vitro selection for triplet polymerase activity
# if value of polymerase ribozyme fitness (log ratio) reaches -5, tag yes; if it stays below, tag no

{"sequence.content": "GACCAAUCUGCCCUCAGAGCUCGAGAACAUCUUGGGAUGCAGAGGAGGCAGGCUCCGAUGGCGCGAUAGCGCCAACGUCCUAAAUCUACAAUGCAUCCCACCACAUGAUGAUGCCUGAAGAGUCUUGGUUGUUUG [C34G U55C G58A C82A C85U C88A C123U U131G]", "class": "no"}
{"sequence.content": "GACCAAUCUGCCCUCAGAGCUCGAGAACAUCUUCGGAUGCAGAGGAGGCAUGCUUCGGUGGCGCGAUAGGGCCAACGUCCUCAACCUCCAAUGCAUCCCACCACAUGAUGAUGCCUGAAGAGCCUUGGUUUUUUG [G51U C70G]", "class": "no"}
{"sequence.content": "GACCAAUUUGCCCUCAGAGUUCGAGAACAUCUUCGGUUGCAGUGGAGGCAGGCUUCGGUGGCGCGAUAGCGCCAACGUCCUCAACCUCCAAUGCAUCCCACCACAUGAUGAUGCCUGAAGAGCCUUGGUUUUUUG [C8U C20U A37U A43U]", "class": "yes"}
{"sequence.content": "GACCAAUCUGCCCUCAGAGCUCGAGAACAUCUUCGGAUGAAGAGGAGGCGGGCUUCGGUGGCGCGAUAGCUCCAACGUCCUCAAUCUCCAAUGCAUCCCACCACAUGAUGAUGCCUGAAGAGCCUUGGUUUUUUG [C40A A50G G71U C85U]", "class": "yes"}
{"sequence.content": "GACCAAUUUGCCCUCAGAGCUCGAGAACAUCUUCGGAUGCAGAGGAGGCAGGCUUCGGUGGCGCGAUAGCGCCAACGUCCUCAACCUCCAAUGCAUCCCACCACAUGAUGAUGCCUGAAGAGCAUUGGUUUUUUG [C8U C124A]", "class": "yes"}

**Q:** Could you verify whether the entry GACCUAUCUGCCCUCAGAGCUCGAGAACAUCUUCGGAUGCAGAGGAGGCAGGCUUCGGUGGCGCGAUAGCGCCAACGUCCUCAACCUCCAAUGCAUCCCACCACAUGAUGAUCCCUGAAGAGCCGUGGUUUAUUG [A5U G113C U125G U132A] shows polymerase ribozyme fitness (log ratio) of no less than -5?
**A:** yes

**Q:** Could you verify whether the entry GACCAAUCUGCCCUCAGAGCUCGAGAACAUCUUCGGAUGCAGCGGAGGCAGGCUUCGGUGUCGCGAUAGCGCCAACGUCCUCAACCUCCAAUGCAUCCCACCACAUGAUGAUGCCUGAAGAGGCUUGGUUUUUUG [A43C G61U C123G] shows polymerase ribozyme fitness (log ratio) of no less than -5?
**A:** yes

**Q:** Could you verify whether the entry GACCAAUCUGCCCUCAGAGCUCGAGAACAUCUUCGGAUGCAGAUGAGGCAGGCUUCGGUUGCGCGAUAGCGCCAACGUCCUCAACCUCCAAUGUAUCCCACCACAUGAUGAUGCCUGAAGAGCCUUGGUUUUUUG [G44U G60U C94U] shows polymerase ribozyme fitness (log ratio) of no less than -5?
**A:** yes

**Q:** Could you verify whether the entry GACCAAUCUGCCCUCAGAGCUCGAGAACAUCUUCGGAUGCAGAGGAGGCAGGCUUCGGUGGCGCGAUAGCGCCAACGUCCUCAACCUCCAAUGCAUCCCACCACGUGAUGAUGCCUAAAGAGCCUUGGUUUUUUG [A105G G117A] shows polymerase ribozyme fitness (log ratio) of no less than -5?
**A:** yes
